Decision: logP beneath 1 gives True; logP meeting or exceeding 1 gives False.

Below, 6 compounds whose answers are already recorded.
Would you kindly verify if logP of `O=NN1CCCCCC1` is strictly less than 1?
True

Would you kindly verify if logP of `CC(C)(C)C1CCN(N=O)CC1` is strictly less than 1?
False

Would you kindly verify if logP of `CCN(CC)C(=O)N(C)N=O` is strictly less than 1?
False

Would you kindly verify if logP of `COCCN(CCOC)N=O` is strictly less than 1?
True

Would you kindly verify if logP of CC1C(C)N(N=O)C(C)C(C)N1N=O (centres undefined) is strictly less than 1?
True

Would you kindly verify if logP of `CCN(CC)C(=O)N(CC)N=O` is strictly less than 1?
False

---
Would you kindly verify if logP of CC1CCCC(C)N1N=O (centres undefined) is strictly less than 1?
False

Would you kindly verify if logP of `O=NN1CCSCC1` is strictly less than 1?
True

Would you kindly verify if logP of O=NN1CCC(Cl)C(Cl)C1 (centres undefined) is strictly less than 1?
False
